# System Name: HER2 expressed on the surface of cells (human, UniProt P04626 23-1255)
# Assay Overview: cell-based or functional assay
Quantity Kind: growth inhibition IC50 (potency), BT474 cells (nM)
Number only, in nM; omit the unit.

Below, each entry is followed by its recorded growth inhibition IC50 (potency), BT474 cells result.
Variant 14022 (antibody, name in Kabat numbering, V domains shown, also called v14022) VH: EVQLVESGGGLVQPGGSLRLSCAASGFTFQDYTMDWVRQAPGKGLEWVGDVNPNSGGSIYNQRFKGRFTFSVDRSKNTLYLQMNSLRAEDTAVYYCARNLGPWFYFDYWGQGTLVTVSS VL: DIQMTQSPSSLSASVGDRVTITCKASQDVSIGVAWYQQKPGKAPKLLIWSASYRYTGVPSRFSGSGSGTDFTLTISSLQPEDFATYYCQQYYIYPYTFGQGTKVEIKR | 0.54
Variant 14019 (antibody, name in Kabat numbering, V domains shown, also called v14019) VH: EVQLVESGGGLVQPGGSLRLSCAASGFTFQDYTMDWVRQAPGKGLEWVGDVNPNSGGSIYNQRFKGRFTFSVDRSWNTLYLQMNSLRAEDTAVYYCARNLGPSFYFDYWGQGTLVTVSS VL: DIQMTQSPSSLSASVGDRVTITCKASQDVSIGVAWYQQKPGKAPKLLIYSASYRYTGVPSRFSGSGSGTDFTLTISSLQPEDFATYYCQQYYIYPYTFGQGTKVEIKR | 0.51

Pending binder:
query: Indicate the recorded growth inhibition IC50 (potency), BT474 cells value for this binder: Variant 14018 (antibody, name in Kabat numbering, V domains shown, also called v14018) VH: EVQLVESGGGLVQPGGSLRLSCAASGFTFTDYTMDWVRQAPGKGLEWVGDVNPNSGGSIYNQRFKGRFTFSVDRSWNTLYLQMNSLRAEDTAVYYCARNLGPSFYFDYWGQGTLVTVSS VL: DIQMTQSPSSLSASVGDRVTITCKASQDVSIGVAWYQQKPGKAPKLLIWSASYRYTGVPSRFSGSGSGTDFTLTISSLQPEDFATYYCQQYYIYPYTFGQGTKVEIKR
result: 0.66
